B1: RHOBTB3 (parent)
chain: KVVEAHKIVLCAVSHVFMLLFNVK

Variants of: B1
Assay: protein stability index of a GFP-peptide fusion (GPS, HEK-293T) (PSI 1-6); higher = more stable;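 further: lentivirally expressed fusions sorted by FACS into six bins by GFP to DsRed ratio, PSI derived from sequencing read proportions per bin multiplied by bin number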
Conditions: c terminus: a fixed tail appended
Attribute: protein stability index

{"mutantLabel": "C11D", "protein stability index": 2.13}
{"mutantLabel": "V3N", "protein stability index": 3.87}
{"mutantLabel": "V16F", "protein stability index": 2.99}
{"mutantLabel": "E4D", "protein stability index": 2.33}
{"mutantLabel": "V2L", "protein stability index": 2.32}
{"mutantLabel": "C11H", "protein stability index": 4.45}
{"mutantLabel": "V2F", "protein stability index": 2.5}
{"mutantLabel": "F21A", "protein stability index": 3.13}
{"mutantLabel": "K1F", "protein stability index": 4.17}
{"mutantLabel": "K24G", "protein stability index": 2.28}
{"mutantLabel": "M18Q", "protein stability index": 2.43}
{"mutantLabel": "C11E", "protein stability index": 1.86}
{"mutantLabel": "V2T", "protein stability index": 2.6}
{"mutantLabel": "V13E", "protein stability index": 2.5}
{"mutantLabel": "A12Y", "protein stability index": 2.46}
{"mutantLabel": "K1W", "protein stability index": 3.19}
{"mutantLabel": "A5T", "protein stability index": 1.72}
{"mutantLabel": "M18N", "protein stability index": 3.02}
{"mutantLabel": "V16Y", "protein stability index": 2.19}
{"mutantLabel": "V9H", "protein stability index": 2.71}
{"mutantLabel": "L10T", "protein stability index": 3.3}
{"mutantLabel": "V3R", "protein stability index": 2.02}
{"mutantLabel": "N22M", "protein stability index": 3.79}
{"mutantLabel": "K24I", "protein stability index": 2.06}
{"mutantLabel": "S14V", "protein stability index": 2.49}
{"mutantLabel": "V16K", "protein stability index": 3.55}
{"mutantLabel": "H6L", "protein stability index": 1.75}
{"mutantLabel": "K1D", "protein stability index": 4.55}
{"mutantLabel": "V23S", "protein stability index": 2.44}
{"mutantLabel": "K7G", "protein stability index": 2.79}
{"mutantLabel": "N22A", "protein stability index": 2.86}
{"mutantLabel": "C11F", "protein stability index": 1.94}
{"mutantLabel": "I8T", "protein stability index": 2.93}
{"mutantLabel": "V23T", "protein stability index": 3.33}
{"mutantLabel": "V13C", "protein stability index": 3.14}
{"mutantLabel": "L19E", "protein stability index": 2.2}
{"mutantLabel": "S14G", "protein stability index": 2.17}
{"mutantLabel": "V13N", "protein stability index": 2.33}
{"mutantLabel": "F17C", "protein stability index": 3.12}
{"mutantLabel": "L20H", "protein stability index": 3.28}
{"mutantLabel": "V3K", "protein stability index": 3.12}
{"mutantLabel": "F21D", "protein stability index": 3.1}
{"mutantLabel": "V9D", "protein stability index": 2.67}
{"mutantLabel": "F21E", "protein stability index": 1.88}
{"mutantLabel": "V9F", "protein stability index": 2.7}
